- Test system: barnyardgrass (Echinochloa crus-galli)
- protocolText: Test A preemergence, barnyardgrass
- Format: in vivo
- conditionDetails: Preemergence, 1000 g ai/ha; 0 to 100 scale (0 no effect, 100 complete control)
observationType: Plant response rating, Barnyardgrass
In your answer, state the number alone without any accompanying words.

# example entries with known answers
Cc1cc(C)c(C(=O)N2CCC(C)CC2)cc1NS(=O)(=O)C(F)(F)F    100
Cc1cc(C)c(N(S(=O)(=O)C(F)(F)F)S(=O)(=O)C(F)(F)F)cc1C(=O)N1CCSCC1    100
COc1cc(Cl)c(NS(=O)(=O)C(F)(F)F)cc1C(=O)N1CCOCC1    80
Cc1cc(C)c(C(=O)N2CCC(F)CC2)cc1NS(=O)(=O)C(F)(F)F    100

**Query** Give the reported value of Plant response rating, Barnyardgrass for this record: `Cc1ccc(C(=O)N2CCC(C(C)(C)C)CC2)cc1NS(=O)(=O)C(F)(F)F`
**Result** 20

----------
- Test system: Foxtail, Giant (giant foxtail, Setaria faberi)
- protocolText: Test A preemergence, Foxtail, Giant
- Type: in vivo
- conditionDetails: Preemergence, 1000 g ai/ha; 0 to 100 scale (0 no effect, 100 complete control)
Each record here notes measured Plant response rating, Foxtail, Giant.
In your answer, state the number alone without any accompanying words.

Cc1cc(C)c(C(=O)N2CCC(Cl)CC2)cc1NS(=O)(=O)C(F)(F)F    100
Cc1cc(C)c(N(S(=O)(=O)C(F)(F)F)S(=O)(=O)C(F)(F)F)cc1C(=O)N1CCSCC1    100

**Query** Give the reported value of Plant response rating, Foxtail, Giant for this record: `Cc1cc(C)c(C(=O)N2CCC(C)CC2)cc1NS(=O)(=O)C(F)(F)F`
**Result** 100

**Query** Give the reported value of Plant response rating, Foxtail, Giant for this record: `Cc1cc(C)c(C(=O)N2CCN(C)CC2)cc1NS(=O)(=O)C(F)(F)F`
**Result** 80

----------
- System: soybean (Glycine max)
- protocolText: Test A1 postemergence, soybean
- Type: in vivo
- conditionDetails: 31 g ai/ha, postemergence; 0 to 100 scale (0 no effect, 100 complete control)
- Description: […]
observationType: Soybean plant response rating
In your answer, state the number alone without any accompanying words.

# example entries with known answers
Cc1cc(C)c(N2Cc3cccc(C)c3C2=O)cc1NS(=O)(=O)Cl    40
COC1CCC2(CC1)CCN(c1cc(NS(=O)(=O)C(F)(F)F)c(C)cc1C)C2=O (stereo not drawn)    30

Switching to the query record.
**Query** Find the measured Soybean plant response rating of Cc1cc(C)c(N2CCC3(CCC(C)CC3)C2=O)cc1NS(=O)(=O)C(F)(F)F (stereo not drawn) with soybean (Glycine max) as test system.
**Result** 60

----------
- Test system: goosegrass (Eleusine indica)
- protocolText: Test A1 postemergence, goosegrass
- Format: in vivo
- conditionDetails: Postemergence, 31 g ai/ha; 0 to 100 scale (0 no effect, 100 complete control); 10 days
observationType: Plant response rating, Goosegrass
In your answer, state the number alone without any accompanying words.

# example entries with known answers
Cc1cc(F)c(C2=NOC3CCCC23)cc1NS(=O)(=O)C(F)(F)F (centres unmarked)    0
COCC1CC(c2cc(N(COC(=O)C(C)(C)C)S(=O)(=O)C(F)(F)F)c(C)cc2C)=NO1 (centres unmarked)    0
Cc1cc(C)c(N(COC(=O)C(C)(C)C)S(=O)(=O)C(F)(F)F)cc1C(=O)N1CCC(C)CC1    0
Cc1c(C2=NO[C@@H]3CCC[C@H]23)cc(N(COC(=O)C(C)(C)C)S(=O)(=O)C(F)(F)F)c(C)c1C    0
Cc1c(NS(=O)(=O)C(F)(F)F)cc(C(=O)N2CCOCC2)c(C)c1Cl    30

**Query** Give the reported value of Plant response rating, Goosegrass for this record: Cc1cc(C)c(C2=NOC3COCC23)cc1NS(=O)(=O)C(F)(F)F (centres unmarked)
**Result** 0

**Query** Give the reported value of Plant response rating, Goosegrass for this record: CCOC1CC(c2cc(NS(=O)(=O)C(F)(F)F)c(C)cc2C)=NO1 (centres unmarked)
**Result** 30

----------
- Test system: ragweed (common ragweed, Ambrosia artemisiifolia)
- protocolText: Test A1 preemergence, ragweed
- Format: in vivo
- conditionDetails: 31 g ai/ha, 0 to 100 scale (0 no effect, 100 complete control)
observationType: Plant response rating, Ragweed
In your answer, state the number alone without any accompanying words.

# example entries with known answers
Cc1c(NS(=O)(=O)C(F)(F)F)cc(C(=O)N2CC(C)OC(C)C2)c(C)c1C (centres unmarked)    90
Cc1cc(C)c(N(S(=O)(=O)C(F)(F)F)S(=O)(=O)C(F)(F)F)cc1N1CCC2(CCC(C(F)(F)F)CC2)C1=O (centres unmarked)    0

**Query** Find the measured Plant response rating, Ragweed of `C#CCN(C)C(=O)c1cc(NS(=O)(=O)C(F)(F)F)c(Cl)c(F)c1C` with ragweed (common ragweed, Ambrosia artemisiifolia) as test system.
**Result** 70

**Query** Find the measured Plant response rating, Ragweed of `Cc1cc(C)c(N2CC3(CCCCC3)CC2=O)cc1NS(=O)(=O)C(F)(F)F` with ragweed (common ragweed, Ambrosia artemisiifolia) as test system.
**Result** 0

----------
- System: ragweed (common ragweed, Ambrosia artemisiifolia)
- protocolText: Test A1 postemergence, ragweed
- Format: in vivo
- conditionDetails: Postemergence, 31 g ai/ha; 0 to 100 scale (0 no effect, 100 complete control); 10 days
Each record here notes measured Plant response rating, Ragweed.
In your answer, state the number alone without any accompanying words.

# example entries with known answers
Cc1cc(C)c(N(COC(=O)N(C)C)S(=O)(=O)C(F)(F)F)cc1C1=NOC2CCCC12 (centres unmarked) [Compound 317]    10
COc1cc(C)c(C2=NOC3(CCCC3)C2)cc1NS(=O)(=O)C(F)(F)F [Compound 304]    0
Cc1c(NS(=O)(=O)C(F)(F)F)cc(C(=O)N2CC(C)OC(C)C2)c(C)c1C (centres unmarked) [Compound 328]    40
COc1cc(C)c(NS(=O)(=O)C(F)(F)F)cc1C1=NOC2CCCC12 (centres unmarked) [Compound 312]    0

Switching to the query record.
**Query** Give the reported value of Plant response rating, Ragweed for this record: COCC1CC(c2cc(NS(=O)(=O)C(F)(F)F)c(C)cc2C)=NO1 (centres unmarked) [Compound 319]
**Result** 30

----------
- System: Foxtail, Giant (giant foxtail, Setaria faberi)
- protocolText: Test A1 postemergence, Foxtail, Giant
- Assay type: in vivo
- conditionDetails: 31 g ai/ha, postemergence; 0 to 100 scale (0 no effect, 100 complete control)
observationType: Foxtail, Giant plant response rating
In your answer, state the number alone without any accompanying words.

Cc1cc(C)c(C2=NOC3OCCCC23)cc1NS(=O)(=O)C(F)(F)F (stereo not drawn)    0
COC1CCN(C(=O)c2cc(NS(=O)(=O)C(F)(F)F)c(C)c(C)c2C)CC1    10
Cc1cc(C)c(N2CCC3(CCC(C)CC3)C2=O)cc1NS(=O)(=O)C(F)(F)F (stereo not drawn)    0
Cc1cc(C)c(N(COC(=O)C(C)(C)C)S(=O)(=O)C(F)(F)F)cc1C1=NOC(C(C)C)C1 (stereo not drawn)    0
Cc1cc(C)c(N(S(=O)(=O)C(F)(F)F)S(=O)(=O)C(F)(F)F)cc1N1CCC2(CCC(C(F)(F)F)CC2)C1=O (stereo not drawn)    10

Switching to the query record.
**Query** Give the reported value of Foxtail, Giant plant response rating for this record: Cc1c(C(=O)N2C[C@@H](C)O[C@H](C)C2)cc(N(COC(=O)C(C)(C)C)S(=O)(=O)C(F)(F)F)c(C)c1C (relative stereo)
**Result** 0

----------
- System: galium (catchweed bedstraw, Galium aparine)
- protocolText: Test A1 postemergence, galium
- Type: in vivo
- conditionDetails: Postemergence, 31 g ai/ha; 0 to 100 scale (0 no effect, 100 complete control); 10 days
observationType: Plant response rating, Galium

# example entries with known answers
COc1cc(C)c(C2=NOC3(CCCC3)C2)cc1NS(=O)(=O)C(F)(F)F [Compound 304]    0
Cc1cc(C)c(N(COC(=O)C(C)(C)C)S(=O)(=O)C(F)(F)F)cc1C1=NOC2(C)CCCC12 (centres unmarked) [Compound 341]    50
Cc1cc(C)c(N(C(=O)OCC(C)C)S(=O)(=O)C(F)(F)F)cc1C1=NOC2CCCC12 (centres unmarked) [Compound 299]    40
Cc1cc(C)c(N(S(=O)(=O)C(F)(F)F)S(=O)(=O)C(F)(F)F)cc1C1=NOC2COCC12 (centres unmarked) [Compound 296]    50
Cc1c(C(=O)N2CCC(F)CC2)cc(N(COC(=O)C(C)(C)C)S(=O)(=O)C(F)(F)F)c(C)c1C [Compound 361]    80

**Query** Find the measured Plant response rating, Galium of Cc1c(C2=NO[C@@H]3CCC[C@H]23)cc(N(COC(=O)C(C)(C)C)S(=O)(=O)C(F)(F)F)c(C)c1C [Compound 336] with galium (catchweed bedstraw, Galium aparine) as test system.
**Result** 60

**Query** Find the measured Plant response rating, Galium of Cc1cc(F)c(C2=NOC3CCCC23)cc1NS(=O)(=O)C(F)(F)F (centres unmarked) [Compound 310] with galium (catchweed bedstraw, Galium aparine) as test system.
**Result** 0

**Query** Find the measured Plant response rating, Galium of CCC1ON=C(c2cc(NS(=O)(=O)C(F)(F)F)c(C)cc2C)C1CC (centres unmarked) [Compound 346] with galium (catchweed bedstraw, Galium aparine) as test system.
**Result** 70
